Tonset5% overview
test: Thermal stability (thermalgravimetric analysis, TGA); format: physicochemical; conditions: TGA
Experimental Endpoint: Tonset5% (°C)

CC([O-])=NS(=O)(=O)c1ccc(N)cc1.CCCCCCCCCC[N+](C)(C)CCCCCCCCCC [Didecyldimethylammonium Sulfacetamide]: 183.3
CCCCCCCCCCCCCCCC[n+]1ccccc1.CCCCCCOC(=O)CC(C(=O)OCCCCCC)S(=O)(=O)[O-] (centres unmarked): 248
CC(=O)NS(=O)(=O)c1ccc(N)cc1.CCCCCCCCCCCCCCCC[n+]1ccccc1 [Hexadecylpyridinium Sulfacetamide, hexadecylpyridinium sulfacetamide]: 211
CCCCCCCCCC[N+](C)(C)CCCCCCCCCC.CCN1CCN(C(=O)NC(C(=O)NC2C(=O)N3C2SC(C)(C)C3C(=O)[O-])c2ccccc2)C(=O)C1=O (centres unmarked): 181
CCCCCCCCCC[N+](C)(C)CCCCCCCCCC.CCCCCCOC(=O)CC(C(=O)OCCCCCC)S(=O)(=O)O (centres unmarked): 218

---

experiment: Thermal stability (thermalgravimetric analysis, TGA); format: physicochemical; conditions: TGA
Each entry gets NO if its Tonset stays under 200 °C, and YES if its Tonset is 200 °C or above.

CC(=O)NS(=O)(=O)c1ccc(N)cc1.CCCCCCCCCCCCCCCC[n+]1ccccc1 [Hexadecylpyridinium Sulfacetamide, hexadecylpyridinium sulfacetamide]: YES
CCCCCCCOC[N+](C)(C)CCOC(C)=O.O=C([O-])c1ccccc1: NO
CCCCCCCCCCCCOC[N+](C)(C)CCOC(C)=O.O=C([O-])c1ccccc1: NO
CCCCCCCCCCCOC[N+](C)(C)CCO.O=C([O-])c1ccccc1: NO
CCCCCCCCCCCCCCCC[n+]1ccccc1.CCCCCCOC(=O)CC(C(=O)OCCCCCC)S(=O)(=O)[O-] (centres unmarked): YES
CCCCCCCCCC[N+](C)(C)CCCCCCCCCC.CCCCCCOC(=O)CC(C(=O)OCCCCCC)S(=O)(=O)O (centres unmarked): YES

---

system: Staphylococcus aureus ATCC 6538; assay: Microbiological activity test (dilution method), MIC and MBC; assay type: cell-based; conditions: S. aureus; reduction not lower than 99.99%; 48 h at 37° C.
Experimental Endpoint: MBC

CC1=CC([O-])=NS(=O)(=O)O1.CCCCCCCCCC[N+](C)(C)CCCCCCCCCC [[DDA][Ace], didecyldimethylammonium acesulfamate]: 16 ppm
CCCCCCCCCCCC[N+](C)(C)Cc1ccccc1.O=C1[N-]S(=O)(=O)c2ccccc21 [[BA][Sac], benzalkonium saccharinate]: 31.2 ppm
CCCCCCCCCC[N+](C)(C)CCCCCCCCCC.O=C1[N-]S(=O)(=O)c2ccccc21 [[DDA][Sac], Didecyldimethylammonium Saccharinate]: 62.5 ppm
CC1=CC(=O)[N-]S(=O)(=O)O1.CCCCCCCCCCCC[N+](C)(C)Cc1ccccc1 [[BA][Ace], benzalkonium acesulfamate]: 31.2 ppm

---

assay: Thermal stability (thermalgravimetric analysis, TGA); assay type: physicochemical; settings: Table 2; no unit in table (temperature is in ° C.)
Tonset(5%) - onset temperature for 5% of the decomposition overview
Experimental Endpoint: Tonset(5%) - onset temperature for 5% of the decomposition

CCCCCCCCCCCC[N+](C)(C)Cc1ccccc1.O=C1[N-]S(=O)(=O)c2ccccc21 [[BA][Sac], benzalkonium saccharinate]: 176
CC1=CC(=O)[N-]S(=O)(=O)O1.CCCCCCCCCCCC[N+](C)(C)Cc1ccccc1 [[BA][Ace], benzalkonium acesulfamate]: 186
CCCCCCCCCC[N+](C)(C)CCCCCCCCCC.O=C1[N-]S(=O)(=O)c2ccccc21 [[DDA][Sac], Didecyldimethylammonium Saccharinate]: 184
CC1=CC([O-])=NS(=O)(=O)O1.CCCCCCCCCC[N+](C)(C)CCCCCCCCCC [[DDA][Ace], didecyldimethylammonium acesulfamate]: 182

---

tested on: Escherichia coli ATCC 25922; assay: Microbiological activity test (dilution method), MIC and MBC; type: cell-based; details: E. coli; reduction not lower than 99.99%; 48 h at 37° C.
Experimental Endpoint: MBC (ppm)

CC1=CC(=O)[N-]S(=O)(=O)O1.CCCCCCCCCCCC[N+](C)(C)Cc1ccccc1 [[BA][Ace], benzalkonium acesulfamate]: 125
CCCCCCCCCCCC[N+](C)(C)Cc1ccccc1.O=C1[N-]S(=O)(=O)c2ccccc21 [[BA][Sac], benzalkonium saccharinate]: 62.5
CCCCCCCCCC[N+](C)(C)CCCCCCCCCC.O=C1[N-]S(=O)(=O)c2ccccc21 [[DDA][Sac], Didecyldimethylammonium Saccharinate]: 16
CC1=CC([O-])=NS(=O)(=O)O1.CCCCCCCCCC[N+](C)(C)CCCCCCCCCC [[DDA][Ace], didecyldimethylammonium acesulfamate]: 62.5

The reported numbers originate from patent US8802596B2.
